Examples of compounds with documented GI50 follow.
- System: BT-549
- Protocol: NCI tumour cell line growth inhibition, 48 h
Activity calls are given as the source filed them. Rule as the data show it: active = GI50 up to about 1.1 µM and inactive = higher.
Value kind: GI50

>>> assay_value("O=C(/C=C/c1ccc(Oc2cc(C(=O)/C=C/c3ccc(O)cc3)c(O)cc2O)cc1)c1ccc(O)cc1O [RHUSCHALCONE II]")
"9.84 µM (inactive)"
>>> assay_value("Cc1c(C#N)c(N)[nH]c(=S)c1C#N")
"> 100 µM (inactive)"
>>> assay_value("COC(=O)c1ccc(NCc2cc(O)c3ccccc3c2O)cc1")
"16.6 µM (inactive)"
>>> assay_value("COc1ccc(C2C3=CONC3CC3CCCCC32)cc1 (centres undefined)")
"> 100 µM (inactive)"
>>> assay_value("COc1cccc(C2c3cc4c(cc3OC(N3CCCC3)C2C)OCO4)c1O (centres undefined)")
"3.79 µM (inactive)"
>>> assay_value("COc1ccc2c3c1OC1C(OC)(OC)CC4(C=C2)CN(C)CCC314 (centres undefined)")
"> 100 µM (inactive)"
>>> assay_value("CN(C)/C=N/C1CCC(C(C)(C)C)CC1 (centres undefined)")
"18.5 µM (inactive)"
>>> assay_value("Cc1ccc(-c2ccc3c(c2)Sc2ccccc2O3)n1C")
"3.29 µM (inactive)"
>>> assay_value("COc1cc(OC)cc(Oc2nc3cc(F)c(F)cc3nc2-c2ccccc2)c1")
"> 100 µM (inactive)"
>>> assay_value("Clc1cc(N/N=C(\\c2ccccc2)c2ccccn2)ncn1")
"4.21 µM (inactive)"
>>> assay_value("NC(=O)c1cc2ccccc2o/c1=N/c1ccccc1")
"> 100 µM (inactive)"
>>> assay_value("C=CC(=O)c1ccc2c(c1)OCCOCCOCCOCCOCCO2")
"19.9 µM (inactive)"
>>> assay_value("COc1cccc(NC(=O)CC(=O)NN)c1")
"> 100 µM (inactive)"
>>> assay_value("O=C(NCCNCCNCCNC(=O)c1cc(-c2ccccc2)nc2ccccc12)c1cc(-c2ccccc2)nc2ccccc12")
"7.52 µM (inactive)"
>>> assay_value("COc1ccc(C(=O)c2ccc(-n3c4ccccc4c4ccc5c(c43)C(=O)C=CC5=O)cc2)cc1")
"3.21 µM (inactive)"
>>> assay_value("Cc1[nH]c(-c2ccccc2)c2nc(N(C)C)oc(=O)c12")
"> 100 µM (inactive)"
>>> assay_value("CN(C)CCn1c(=O)c2ccc(NCCNCCO)c3c(=O)c4ccccc4n(c1=O)c23")
"1.21 µM (inactive)"
>>> assay_value("COC(=O)C1=C(C(=O)OC)SC(=C2SC3=C(SC(=C4SCCS4)S3)S2)S1")
"> 100 µM (inactive)"
>>> assay_value("CCN1C/C(=C\\c2ccc(Cl)cc2)c2nc(N)c(C#N)c(-c3ccc(Cl)cc3)c2C1")
"> 100 µM (inactive)"

====

- Test system: MCF7
- Protocol: NCI tumour cell line growth inhibition, 48 h
The source made the active and inactive calls. Cut-off read from the data, not from the text of the source: active = GI50 up to about 1.1 µM and inactive = higher.
Value kind: GI50

>>> assay_value("[N-]=[N+]=NCN1C(=O)C2C3C=CC(C2C1=O)C1C2C(=O)N(CN=[N+]=[N-])C(=O)C2C31 (stereo unspecified)")
"> 100 µM (inactive)"
>>> assay_value("Cn1c(=O)c2c(ncn2CCCCOc2ccc3c(c2)[n+]([O-])nc(N)[n+]3[O-])n(C)c1=O")
"11.9 µM (inactive)"
>>> assay_value("CCN(CC)CCC1CCCCN1CC(=O)N1c2ccccc2NC(=O)c2ccccc21 (stereo unspecified)")
"> 100 µM (inactive)"
>>> assay_value("O=C(O)[C@H](c1ccccc1)[C@@H](C(=O)O)c1ccccc1")
"> 100 µM (inactive)"
>>> assay_value("COc1ccc2nc3c(C)cc4ccccc4n3c2c1")
"51.5 µM (inactive)"
>>> assay_value("Cc1c(C)c(C)c(-n2[nH]c(=O)n(C)c2=O)c(C)c1C")
"> 100 µM (inactive)"

====

- System: OVCAR-8
- Protocol: NCI tumour cell line growth inhibition, 48 h
The source made the active and inactive calls. Cut-off read from the data, not from the text of the source: active = GI50 up to about 1.1 µM and inactive = higher.
Outcome codes: active, inactive

>>> class_label("COC(=O)/C=C(\\S/C(=N\\n1cc(C(=O)OC)c(C(=O)OC)c1-c1ccc(C)cc1)c1ccc(C)cc1)C(=O)OC")
"inactive"
>>> class_label("COc1cc(NCc2ccc3nc(-c4ccccc4)c(N)nc3c2)cc(OC)c1OC")
"inactive"
>>> class_label("COc1ccc(-c2cc(=O)c3c(O)c(OC)c(OC)c(OC)c3o2)cc1")
"inactive"
>>> class_label("CCN(CC)Cc1c(/C=C\\c2cc(OC)c(OC)c(OC)c2)ccc(OC)c1O")
"inactive"
>>> class_label("CC(=O)c1ccc(NC(=O)/C(Cc2ccccn2)=N/NC(=O)C[N+](C)(C)C)cc1")
"inactive"
>>> class_label("CN1CCN(/C(N)=C(\\C#N)C(=O)Nc2ccc(Cl)cc2)CC1")
"inactive"
>>> class_label("O=C1c2ccccc2NC(c2cc(Cl)cc(Cl)c2O)N1CCc1ccccn1 (stereo unspecified)")
"inactive"
>>> class_label("CC1=CC(=O)C(=O)C2=C1OC1(C2)C(C)CCC2C3(C)CCC(O)C(C)(C)C3CCC21C (stereo unspecified)")
"inactive"
>>> class_label("CC1(C)OC[C@H](C(=N)OCc2ccccc2)O1")
"inactive"
>>> class_label("Cn1c(=O)c2c(ncn2CCCCOc2ccc3c(c2)[n+]([O-])nc(N)[n+]3[O-])n(C)c1=O")
"inactive"
>>> class_label("COC(=O)c1c2c(cc3c1CC1(Cc4ccccc4C1)C3)CCC2")
"inactive"
>>> class_label("N=C(N)NC(=N)Nc1ccc(S(=O)(=O)O)cc1")
"inactive"
>>> class_label("C1CSCCSCCS1")
"inactive"
>>> class_label("CN(C)CCNc1ccc2ncn3c4ccc(O)cc4c(=O)c1c23")
"active"
>>> class_label("Nc1nc(N)c2nc(CN(C=O)c3ccc(C(=O)O)cc3)cnc2n1")
"inactive"
>>> class_label("CN(C)c1ccc(/C=C2\\C[C@H]3[C@@H]4CC=C5C[C@@H](O)CC[C@]5(C)[C@H]4CC[C@]3(C)[C@H]2O)cc1")
"inactive"
>>> class_label("Cc1ccccc1/N=N/c1c(O)ccc2ccccc12")
"inactive"
>>> class_label("O=c1[nH]c(=O)n(COC(CO)CO)cc1-c1ccccc1")
"inactive"
>>> class_label("COC(=O)CC(=O)OC1C[C@@H]2CCC3C(C)(C)CCC[C@]3(C)C23CC[C@@]1(C)C3 (stereo partly specified)")
"inactive"
>>> class_label("Nc1nncc2[nH]nnc12")
"inactive"
>>> class_label("CSCCCNC(=O)c1csc(-c2csc(CCNC(=O)CNC(=O)CNC(=O)CNC(=O)OC(C)(C)C)n2)n1")
"inactive"
>>> class_label("COc1cccc(C2c3cc4c(cc3OC(N3CCCC3)C2C)OCO4)c1O (stereo unspecified)")
"inactive"
>>> class_label("NNC(=O)c1cc(=O)[nH][nH]1")
"inactive"
>>> class_label("NNC(=O)CCCCCCCC(=O)O")
"inactive"
>>> class_label("[N-]=[N+]=NCN1C(=O)C2C3C=CC(C2C1=O)C1C2C(=O)N(CN=[N+]=[N-])C(=O)C2C31 (stereo unspecified)")
"inactive"
>>> class_label("COc1cc2c(oc(=O)c3c4oc([Si](C)(C)C)cc4cc(OC)c23)c2cccc(OCc3ccccc3)c12")
"inactive"
>>> class_label("CCOC(=O)/C=C1/C(CCCOCc2ccccc2)C2CCCC23CC2(CCN13)OCCO2 (stereo unspecified)")
"inactive"
>>> class_label("CC1S/C(=N/c2nnc(-c3ccccc3)o2)NC1=O (stereo unspecified)")
"inactive"
>>> class_label("CN(C)CC/C(=N\\Nc1c(Cl)cccc1Cl)c1ccccc1")
"inactive"
>>> class_label("c1ccc(C2N3CCCCC3[C@@H]3c4[nH]c5ccccc5c4CCN23)nc1 (stereo partly specified)")
"inactive"
>>> class_label("CCC(NC(C)c1ccccc1)C(=O)c1ccc(OCc2ccccc2)c(OCc2ccccc2)c1 (stereo unspecified)")
"inactive"
>>> class_label("CC(=O)OC1CC2C(=O)C(=O)C1(C)C2(C)C (stereo unspecified)")
"inactive"
>>> class_label("O=C(c1ccccc1)c1ccc2[nH]c(-c3c(Cl)c(Cl)c(Cl)c(Cl)c3C(=O)Nc3ccco3)nc2c1")
"inactive"
>>> class_label("CC1=NN(c2cccc(Cl)c2)C2(SCC(=O)N2c2nc3ccccc3s2)/C1=C\\c1cccs1 (stereo unspecified)")
"inactive"
>>> class_label("Cc1nn(C)c(=O)c2nn(-c3ccccc3)c(C)c12")
"inactive"
>>> class_label("Nc1nc(S)nc(C(=O)Nc2ccc(Cl)c(Cl)c2)c1-c1ccc(Cl)cc1")
"inactive"

====

- Tested on: RPMI-8226
- Protocol: NCI tumour cell line growth inhibition, 48 h
The source made the active and inactive calls. Cut-off read from the data, not from the text of the source: active = GI50 up to about 1.1 µM and inactive = higher.
Value kind: GI50

>>> assay_value("Cc1ccccc1/N=N/c1c(O)ccc2ccccc12")
"> 100 µM (inactive)"
>>> assay_value("O=C(NCCNCCNCCNC(=O)c1cc(-c2ccccc2)nc2ccccc12)c1cc(-c2ccccc2)nc2ccccc12")
"2.45 µM (inactive)"
>>> assay_value("Nc1nnnn1NC(=O)NCCCl")
"> 10 µM (inactive)"
>>> assay_value("CN1C(=O)C(C#N)C2C[C@@]1(C)Oc1ccccc12 (some centres undefined)")
"> 100 µM (inactive)"
